assay: NCI Yeast Anticancer Drug Screen. Data for the mlh1 rad18 strain (AID 175); settings: S. cerevisiae mlh1 rad18 strain growth inhibition; at 50.0 µM; active compounds read high
Compounds without any hit were thinned out: in the full panel of roughly 79,000, 15% have a hit.
Quick reference for growth inhibition among some compounds
Answer with a number only, understood to be in %.

Use the examples below as a reference point.
compound: CCC[CH2][Sn]([CH2]CCC)([O]C(=O)c1cc(OC)c(OC)cc1OC)[O][Sn]([CH2]CCC)([CH2]CCC)[O]C(=O)c1cc(OC)c(OC)cc1OC
property.name: growth inhibition
unit.name: %
assay.value: 89
--
compound: CN(C)CCOc1cc2c(c3ccccc13)-c1ccccc1C2O (stereo not drawn)
property.name: growth inhibition
unit.name: %
assay.value: 72.8
--
compound: CC1CCN(CC(=O)N2c3ccccc3Sc3cc4ccccc4cc32)CC1
property.name: growth inhibition
unit.name: %
assay.value: -2.5

Given O=C1CSC(=S)N1c1ccc(F)cc1F , state its recorded growth inhibition.
70.2

Query: growth inhibition; subject: CSCS(=O)C[C@H](CO)NC(=O)/C=C/c1c(C)[nH]c(=O)[nH]c1=O (stereo partly drawn)
85.1

Bench note: what growth inhibition did O=C(NCCl)Nc1ccccc1 show?
66

Item under review: COC(=O)c1c[nH]c2ccc(Br)cc12 . Reported growth inhibition?
40.5

Which growth inhibition value is on record for S=C1NC2=C(CSC/C2=C\c2cccc(Br)c2)C(c2cccc(Br)c2)N1 (stereo not drawn) ?
93.8

Entry under review: CC(N1CCOCC1)C(O)(c1ccccc1)c1ccccn1 (stereo not drawn) . Reported growth inhibition?
2.75

// growth inhibition lookup, key: CCN(CC)CCCC(C)Nc1cc(C)nc2c1ccc1c2ccc2c(NC(C)CCCN(CC)CC)cc(C)nc21 (stereo not drawn)
54.2

Please give the measured growth inhibition for this compound: C/C(=N\NC(=O)c1ccc([N+](=O)[O-])cc1)c1ccccc1
-7.2

Can you look up the measured growth inhibition of Clc1cccc(C2SCc3nc4ccccc4n32)c1Cl (stereo not drawn) for me?
97.1

Any idea what its growth inhibition is? The compound is COc1ccc(C(=O)c2ccc([N+](=O)[O-])cc2)cc1
-21.6

I have this compound here, O=C1C=CC(=O)N1c1cccc([N+](=O)[O-])c1 , and I need its recorded growth inhibition.
99.5

Which growth inhibition is listed for N#CC1CCC(c2ccccc2)(c2ccccc2)C1=O (stereo not drawn) ?
99.5

Returns the measured growth inhibition for the input compound. Input: Cc1[nH]c2c(C)c3c([nH]c4ccc(Cl)cc43)c(C)c2c(=O)c1C
39.1

Could you share which growth inhibition value was measured for C=CCOc1ccccc1C(OCC)OCC ?
43.8

Query: growth inhibition; subject: CCOC(=O)/C(C#N)=C\c1cccc2ccccc12
95.7

For CC1(c2ccc(S(=O)(=O)c3ccccc3)cc2)OC(=O)C=CC1=O (stereo not drawn) , what is its reported growth inhibition?
99.5

Given CSCSCC(CO)NC(=O)/C=C/c1c(C)[nH]c(=O)[nH]c1=O (stereo not drawn) , state its recorded growth inhibition.
92.9

# get_value(readout='growth inhibition', item= COC(=O)Cn1/c(=N\N=C(/C)c2ccc(C)cc2)sc2ccccc21 )
40.6

Fill in: growth inhibition of c1ccc(CCN(Cc2nc3ccccc3[nH]2)Cc2nc3ccccc3[nH]2)cc1 is ___
95.5

Endpoint output: growth inhibition of O=C(NC(OCc1ccccc1)(C(F)(F)F)C(F)(F)F)OCc1ccccc1 . Value?
96.5
